List of inhibition values.
molecular target: Translocator protein (Homo sapiens); test: Inhibition of PBR (unknown origin) at 10 uM relative to control
Please state the figure in %; there is no need to write the unit.

Please review the entries below; each comes with its answer.
cpd-smiles | unit-annotation | inhibition
Cl.NCc1ccc(OCc2ccc(Cl)cc2)cc1 | % | 12
Cl.NCc1ccc(OCc2cccc(Cl)c2)cc1 | % | 50

Continue with the compound presented below.
Given `Cl.NCc1ccc(OCc2cccc(OC(F)(F)F)c2)cc1` , state its recorded inhibition.
3.6
